target: human mu opioid receptor (hMOR) (Homo sapiens, UniProt P35372); construct: expressed in transfected cells; host or cells: CHO cells; test: Mu radioligand binding assay ([3H]diprenorphine, CHO cell membranes); conditions: Table 19; geometric mean of 2-6 determinations unless otherwise indicated (Example 3: >=7); read-out: hMOR binding assay Ki
Sequence (P35372 whole entry): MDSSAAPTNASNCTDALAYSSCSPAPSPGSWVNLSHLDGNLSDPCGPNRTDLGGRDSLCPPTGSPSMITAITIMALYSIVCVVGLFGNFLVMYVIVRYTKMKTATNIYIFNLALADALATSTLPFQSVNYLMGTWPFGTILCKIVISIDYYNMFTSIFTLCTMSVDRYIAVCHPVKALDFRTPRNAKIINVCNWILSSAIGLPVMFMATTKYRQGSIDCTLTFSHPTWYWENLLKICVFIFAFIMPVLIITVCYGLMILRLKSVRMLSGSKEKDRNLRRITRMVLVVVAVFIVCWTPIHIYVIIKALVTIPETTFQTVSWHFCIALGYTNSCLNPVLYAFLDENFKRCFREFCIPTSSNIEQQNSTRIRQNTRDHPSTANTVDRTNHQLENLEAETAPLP
Could you please mark yes for values of Ki below 70 nM and no for values at or above it?

Illustrative cases are given below, each with its answer.
[[record]]
compound = "COc1nn(C)cc1C1COCCN1Cc1ccc(Oc2ccc(C(N)=O)cc2)c(F)c1 (single isomer, unassigned) [Example 22]"
class = "no"

[[record]]
compound = "COc1nn(C)cc1C1CC(C)CN1Cc1ccc(Oc2ccc(C(N)=O)cc2F)cc1 (single isomer, unassigned) [Example 31]"
class = "yes"


Consider Cc1nn(C)cc1C1CCCN1Cc1ccc(Oc2ccc(C(N)=O)c(O)c2)cc1 (single isomer, unassigned; (+)) [Example 17] . Does its Ki lie strictly below 70 nM?
no

Take the compound COc1n[nH]cc1C1CCCN1Cc1ccc(Oc2ccc(C(N)=O)cc2)cc1 (single isomer, unassigned; (+)) [Example 15] and say whether its Ki is less than 70 nM.
no

Hello, is Ki of the following compound strictly smaller than 70 nM? COc1nn(C)cc1[C@@H]1CCCN1Cc1ccc(Oc2ccc(C(N)=O)cc2)cc1 (single isomer, unassigned) [Example 12]
yes

Ki under 70 nM? Item: Cc1nsc(C2CCCN2Cc2ccc(Oc3ccc(C(N)=O)cc3)cc2)n1 (single isomer, unassigned) [Example 41]
no

###

target: human kappa opioid receptor (hKOR) (Homo sapiens); construct: expressed in transfected cells; host or cells: CHO cells; test: Kappa radioligand binding assay ([3H]diprenorphine, CHO cell membranes); settings: radioligand binding, [3H]diprenorphine; read-out: hKOR Ki
pKi: −log10 of the molar value.
reported.metric: pKi

Check out these entries, answers already filled in.
[[record]]
compound = "Cc1nsc(C2CCCN2Cc2ccc(Oc3ccc(C(N)=O)cc3)cc2)n1 (single isomer, unassigned) [enantiomer of Example 41]"
result = "< 6.41"

[[record]]
compound = "COc1nn(C)cc1[C@@H]1CCCN1Cc1ccc(Oc2ccc(C(N)=O)cc2)cc1 (single isomer, unassigned)"
result = "8.52 to 9.00"


Next, consider the following compound.
Enter reported pKi observed with human kappa opioid receptor (hKOR) (Homo sapiens) for COc1nn(C)cc1C1CCCN1Cc1ccc(Oc2ccc(C(N)=O)cc2F)cc1 (single isomer, unassigned; (-))
8.52 to 9.00

###

biological target: human kappa opioid receptor (hKOR) (Homo sapiens, UniProt P41145); construct: expressed in transfected cells; host or cells: CHO cells; assay: Kappa radioligand binding assay ([3H]diprenorphine, CHO cell membranes); settings: Table 19; geometric mean of 2-6 determinations unless otherwise indicated (Example 3: >=7); read-out: hKOR binding assay Ki
Sequence (P41145 whole entry): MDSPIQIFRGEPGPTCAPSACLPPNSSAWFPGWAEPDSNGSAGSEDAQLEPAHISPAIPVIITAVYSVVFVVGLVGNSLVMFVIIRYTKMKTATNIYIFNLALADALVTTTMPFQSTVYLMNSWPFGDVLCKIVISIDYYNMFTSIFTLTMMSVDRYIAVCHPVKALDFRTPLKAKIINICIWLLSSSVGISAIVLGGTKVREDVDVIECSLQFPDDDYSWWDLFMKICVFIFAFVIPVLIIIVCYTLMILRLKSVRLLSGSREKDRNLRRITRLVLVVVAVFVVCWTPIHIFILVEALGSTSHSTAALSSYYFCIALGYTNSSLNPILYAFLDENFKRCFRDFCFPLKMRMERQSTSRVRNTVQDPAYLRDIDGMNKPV
Could you please mark Condition met for values of Ki below 2 nM and Condition not met for values at or above it?

[[record]]
compound = "COc1nn(C)cc1C1COCCN1Cc1ccc(Oc2ccc(C(N)=O)cc2)cc1 (single isomer, unassigned) [Example 23]"
class = "Condition not met"


Find out if reported Ki for Cc1cc(C2CCCN2Cc2ccc(Oc3ccc(C(N)=O)cc3F)cc2)nn1C (stereo not drawn) [Example 44] is less than 2 nM
Condition not met

# TODO verify Ki < 2 nM strictly for this compound: COc1nn(C)cc1C1CCCN1Cc1ccc(Oc2ccc(C(N)=O)cc2F)cc1 (single isomer, unassigned; (-)) [Example 8]
Condition not met

Ki strictly < 2 nM for this compound? Cc1nn(C)cc1C1CCCN1Cc1ccc(Oc2ccc(C(N)=O)c(O)c2)cc1 (single isomer, unassigned; (+)) [Example 17]
Condition not met

In plain terms, does Cc1cc(C2CCCN2Cc2ccc(Oc3ccc(C(N)=O)cc3F)cc2)no1 (stereo not drawn) [Example 40] come in under 2 nM for Ki?
Condition not met

Hello, is Ki of the following compound strictly smaller than 2 nM? Cc1cc([C@@H]2CCCN2Cc2ccc(Oc3ccc(C(N)=O)c(O)c3)cc2)n(C)n1 [Example 27]
Condition not met
